The measurements presented in this section are drawn from paper PMC5540273.

# Test system: DRAK2
# Construct: gene STK17B
# Run parameters: concentration: 1 μM, replicates: in singlicate; n = 1;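 note: KINOMEscan kinase panel screen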
Reported %Inh values follow for various compounds
Experimental endpoint: %Inh (%)

>>> df
                                    compound  measured_result
 0               CCn1c(-c2cccnc2O)nc2cnccc21                0
 1  Cc1cccc(-c2nc(Nc3ccc4[nH]ncc4c3)c3ccccc3n2)n1               10
 2                Cc1ccccc1-n1cnc2c(N)ncnc21               47
 3  Cc1c(O)cccc1Nc1ccnc2ccc(C(F)(F)F)cc12.Cl                0
 4  Cc1c(Cn2ccn3c(=O)cc(N4CCOCC4)nc23)cccc1C(F)(F)F                0
 5                     NC(=O)c1nnc2ccccc2c1N               33
 6  CS(=O)(=O)c1ccc(-c2c(-c3ncn[nH]3)sc(N3CCOCC3)c2C#N)cc1                0
 7  COc1ccc(C2=C(Nc3cccc(C(=O)O)c3)C(=O)NC2=O)cc1                7
 8  Cc1cc(-c2ccc3c(c2)CC[C@@H](N[C@@H](C)c2ccccc2)C3)cnc1N.Cl               11
 9  CN1C(=O)C(Nc2ccc(Cl)c(C(=O)O)c2)=C(c2ccc(Cl)cc2)C1=O                0
10     Cc1cccc(-c2cc(Nc3ccncc3)c3ccccc3n2)n1                0
11        Cc1cccc(-c2nc(C)cc(Nc3ccncc3)n2)n1                0
12           Fc1cc(Cl)ccc1Nc1ccnc2cc(I)ccc12                0
13     Cc1cccc(-c2nc(Nc3ccncc3)c3ccccc3n2)n1                7
14   O=C1NC(=O)C(N2CCc3ccccc32)=C1c1ccccc1Cl                0
15  CC(=O)Nc1nc2cnc(Nc3cc(NC(=O)c4cccc(CCC#N)c4)ccc3C)nc2s1                0
16  Cc1ccc(-c2cc(-c3c[nH]nc3-c3ccccn3)ccn2)cc1                0
17  COc1ccc(CNC(=O)NC2CCN(c3ccnc(Nc4cc(OC)c(OC)c(OC)c4)n3)C2)cc1 (centres unmarked)                0
18      Cc1csc(-c2nc(Nc3ccncc3)c3ccccc3n2)n1                0
19  Cc1cccc(-c2nc(-c3ccc(S(C)(=O)=O)cc3)sc2-c2ccnc(NCCc3ccccc3)c2)c1               10

----------
# Test system: PIK3CG
# Run parameters: concentration: 1 μM, replicates: in singlicate; n = 1
Experimental endpoint: %Inh (%)

>>> df
                                    compound  experimental_endpoint  measured_result
 0  Cl.NC(=O)c1cccc(Nc2nccc(Nc3ccc(Oc4cccc(Cl)c4)c(Cl)c3)n2)c1                   %Inh                0
 1  O=C(Nc1n[nH]c2cc(-c3cccc(F)c3F)ccc12)C1CC1                   %Inh               19
 2  Cc1ccc(C(=O)Nc2ccc(Nc3ccnc4cc(-c5ccccn5)ccc34)cc2O)cc1.Cl                   %Inh                0
 3  Cn1ccc2ncnc(Oc3cccc(C(=O)Nc4ccccc4)c3)c21                   %Inh                0
 4  COc1cc2ncnc(Nc3ccc4nc(-c5ccccc5)[nH]c4c3)c2cc1OC.Cl                   %Inh                0
 5  Cl.O=C(Nc1cccc(-c2nn3ncccc3c2-c2ccnc(Nc3cccnc3)n2)c1)c1c(F)cccc1F                   %Inh                0
 6  COc1ccc(Nc2nccc(NCCNC(=O)Nc3ccccc3F)n2)cc1                   %Inh                0
 7              Nc1ncnc2[nH]c(-c3ccccc3)nc12                   %Inh                0
 8  C[C@@H]1CCCCN1c1cc(-c2ccc3c(N)n[nH]c3c2)nc(N)n1                   %Inh                0
 9  CC(C)(C)c1ccc(C(=O)Nc2cn3cc(Cl)ccc3n2)cc1                   %Inh                0
10  COc1ccc(C2=C(Nc3cccc(C(=O)O)c3)C(=O)NC2=O)cc1                   %Inh               27
11  O=c1cc(N2CCOCC2)nc2n(Cc3cccc(Cl)c3Cl)ccn12                   %Inh               50
12  Cc1c(O)cccc1Nc1ccnc2ccc(C(F)(F)F)cc12.Cl                   %Inh                0
13  CS(=O)(=O)c1ccc(-c2c(-c3ncn[nH]3)sc(N3CCOCC3)c2C#N)cc1                   %Inh               57
14      Cc1csc(-c2nc(Nc3ccncc3)c3ccccc3n2)n1                   %Inh               30
15  CN(C)CCN(C)C(=O)c1cc(-c2ccncc2)c(-c2ccc(Cl)c(O)c2)o1.Cl.Cl                   %Inh                0
16  COc1cc2nccc(Nc3ccc(NC(=O)c4ccc(C)cc4)c(O)c3)c2cc1OC.Cl                   %Inh              100
17  Cc1ccc(NC(=O)Nc2cc(C(C)(C)C)nn2-c2ccccc2)cc1                   %Inh                0
18  Cc1nnc(-c2ccc3occ(-c4ccc(S(C)=O)cc4)c3c2)[nH]1 (stereo not shown)                   %Inh                5

----------
# Test system: TLK2
# Run parameters: concentration: 1 μM, replicates: in singlicate; n = 1
Experimental endpoint: %Inh (%)

>>> df
                                   compound  assay_system  experimental_endpoint  unit_of_measure  measured_result
0  Fc1cc(Cl)ccc1Nc1ccnc2cc(-c3ccc(CN4CCCCC4)o3)ccc12          TLK2                   %Inh                %                0
1  CC1=C(C(=O)Nc2cc3cn[nH]c3cc2F)C(c2ccc(C(F)(F)F)cc2)CC(=O)N1 (centres unmarked)          TLK2                   %Inh                %                0
2  Cc1ccc(-c2cc(-c3c[nH]nc3-c3ccccn3)ccn2)cc1          TLK2                   %Inh                %               10
3  O=S(=O)(c1ccc(-c2ccnc3[nH]ccc23)cc1)N1CCCC1          TLK2                   %Inh                %               19
4  Cc1cccc(-c2nc(Nc3cccc(C(N)=O)c3)c3ccccc3n2)n1          TLK2                   %Inh                %                4
5  Cl.O=C(Nc1cccc(-c2nn3ncccc3c2-c2ccnc(Nc3cccnc3)n2)c1)c1c(F)cccc1F          TLK2                   %Inh                %                0
6  Cl.NC(=O)c1cccc(Nc2nccc(Nc3ccc(Oc4cccc(Cl)c4)c(Cl)c3)n2)c1          TLK2                   %Inh                %                0
7  Cc1ccc(NC(=O)Nc2cc(C(C)(C)C)nn2-c2ccccc2)cc1          TLK2                   %Inh                %                0

----------
# Tested on: MST1
# Construct: gene STK4
# Run parameters: concentration: 1 μM, replicates: in singlicate; n = 1
Criterion: %Inh meeting or surpassing 1%. Met: Condition met. Not met: Condition not met.

>>> print(df.to_string())
                            structure_string        label_value
 0  O=C(Nc1n[nH]c2nc(-c3nccs3)c(Br)cc12)C1CCCC1      Condition met
 1       Nc1nc(-c2nccs2)c(-c2ccnc3ccccc23)s1      Condition met
 2  Cc1ccc(-c2cc(-c3c[nH]nc3-c3ccccn3)ccn2)cc1  Condition not met
 3  Clc1cc(Cl)cc(Nc2ccnc(Nc3cc(Cl)cc(Cl)c3)n2)c1  Condition not met
 4                CCn1c(-c2ccccn2)nc2cnccc21      Condition met
 5  O=C(Nc1n[nH]c2nc(-c3nccs3)c(Br)cc12)C1CC1      Condition met
 6  O=C(O)COc1ncnc2cc(-c3ccc4[nH]ncc4c3)sc12      Condition met
 7  Cc1cccc(-c2nc(-c3ccc(S(C)(=O)=O)cc3)sc2-c2ccnc(NCCc3ccccc3)c2)c1  Condition not met
 8               CCn1c(-c2cccnc2O)nc2cnccc21  Condition not met
 9  COC(=O)c1c(-c2ccccc2)c2cc(OC)ccc2c(=O)n1Cc1ccccc1      Condition met
10  Cl.Oc1ccc(-c2nc(-c3ccccc3)[nH]c2-c2ccncc2)cc1      Condition met
11  Cc1ccc(C(=O)Nc2ccc(Nc3ccnc4cc(-c5ccccn5)ccc34)cc2O)cc1.Cl      Condition met
12  COc1ccc2nc(-c3cccc(C)n3)nc(Nc3ccncc3)c2c1      Condition met
13  Cl.O=C(Nc1cccc(-c2nn3ncccc3c2-c2ccnc(Nc3cccnc3)n2)c1)c1c(F)cccc1F      Condition met
14  Cl.NC(=O)c1cccc(Nc2nccc(Nc3ccc(Oc4cccc(Cl)c4)c(Cl)c3)n2)c1      Condition met
15  Cc1cc(N2Cc3ccccc3C2)nc(Nc2ccc(S(=O)(=O)N3CCOCC3)cc2)n1.Cl  Condition not met
16  CC(C)(C)c1ccc(C(=O)Nc2cn3cc(Cl)ccc3n2)cc1  Condition not met
